test: Caco-2 membrane permeability, improved method as used in the following Examples (96-well, 20 to 24 h preincubation); format: in vitro ADME; conditions: human, Caco-2, Caco-2
Starred links: 1 amine or outer side, 2 acyl side, 3 side chain; linkers in the order of their positions; H or OH if unused. Positions of bridges follow the written chain, without caps; N, C: chain ends. Non-standard residues stand in square brackets, D forms with d. Residues, ends and D or L forms follow the SMILES beside them. *: point of attachment. NMeAbu(3,3-F2-piperidino) = CN[C@@H](CCN1CCCC(F)(F)C1)C(=O)O; X12 = CCCC[C@@H](O)[C@H](N[*:1])C(=O)[*:2]; NMeF = CN[C@@H](Cc1ccccc1)C(=O)O; NMeGABA = CN(CCCC(=O)[*:2])[*:1]; NMeI = CC[C@H](C)[C@H](NC)C(=O)O; NMeL = CN[C@@H](CC(C)C)C(=O)O; NMeV = CN[C@H](C(=O)O)C(C)C; NMeA = CN[C@@H](C)C(=O)O; Piperidide = C1CCN(*)CC1; CH2CMe2OH = CC(C)(O)C*; Me2NCH2CH2 = CN(C)CC*; NPrGly = CCCNCC(=O)O; Sar = CNCC(=O)O; tBu = CC(C)(C)*
Quantity: Papp A→B at 180 min

Molecule	Quantity	Observed Result
CC(C)C[C@@H]1NC(=O)[C@H](Cc2ccccc2)N(C)C(=O)[C@@H](C(C)C)NC(=O)C[C@@H](C(=O)N2CCCCC2)NC(=O)[C@H](C(C)C)N(C)C(=O)[C@H](Cc2ccccc2)N(C)C(=O)[C@H](COC(C)(C)C)NC(=O)[C@H](CCN2CCCC(F)(F)C2)N(C)C(=O)CN(C)C(=O)[C@H]([C@@H](C)O)NC(=O)[C@H](CC(C)C)N(C)C1=O [pd387] ([dV][NMeF]L[NMeL]T[Sar][NMeAbu(3,3-F2-piperidino)]S(tBu)[NMeF][NMeV]D-Piperidide; lactam N-11)	Papp A→B at 180 min	3.5 ×10⁻⁶ cm/s
CCCN1CC(=O)N(C)[C@@H](CC(C)C)C(=O)N[C@H](C(=O)N2CCCCC2)CC(=O)N(C)[C@@H](C)C(=O)N[C@@H](CC(C)C)C(=O)N(C)[C@@H](CC(C)C)C(=O)N(C)[C@@H](Cc2ccccc2)C(=O)N[C@@H](COCC(C)(C)O)C(=O)N(C)[C@@H](Cc2ccccc2)C(=O)N(C)[C@@H]([C@@H](C)CC)C(=O)N[C@@H]([C@@H](C)O)C1=O [pd429] ([NMeA]L[NMeL][NMeF]S(CH2CMe2OH)[NMeF][NMeI]T[NPrGly][NMeL]D-Piperidide; lactam N-11)	Papp A→B at 180 min	3.3 ×10⁻⁶ cm/s
CCCC[C@@H](O)[C@@H]1NC(=O)[C@H](Cc2ccccc2)N(C)C(=O)[C@H](Cc2ccccc2)N(C)C(=O)[C@H]([C@@H](C)CC)NC(=O)[C@H](CC(C)C)N(C)C(=O)CCCN(C)C(=O)C[C@@H](C(=O)N2CCCCC2)NC(=O)[C@H](CC(C)C)N(C)C(=O)[C@H](C)N(C)C(=O)[C@H]([C@@H](C)O)NC(=O)[C@H](CC(C)C)N(C)C1=O [pd468] ([NMeGABA][NMeL]I[NMeF][NMeF][X12][NMeL]T[NMeA][NMeL]D-Piperidide; lactam N-11)	Papp A→B at 180 min	1 ×10⁻⁶ cm/s
CCCN1CC(=O)N(C)[C@@H](CC(C)C)C(=O)N[C@@H](COCCN(C)C)C(=O)N(C)[C@@H](Cc2ccccc2)C(=O)N(C)[C@@H](C(C)C)C(=O)N[C@H](C(=O)N2CCCCC2)CC(=O)N[C@H](C(C)C)C(=O)N(C)[C@@H](Cc2ccccc2)C(=O)N[C@@H](CC(C)C)C(=O)N(C)[C@@H](CC(C)C)C(=O)N[C@@H]([C@@H](C)O)C1=O [pd52] ([dV][NMeF]L[NMeL]T[NPrGly][NMeL]S(Me2NCH2CH2)[NMeF][NMeV]D-Piperidide; lactam N-11)	Papp A→B at 180 min	0.12 ×10⁻⁶ cm/s
